All values here come from paper PMC4336329.

Target: human ether-à-go-go-related gene (hERG) potassium channel (human)
Test: primary screen, population patch clamp on CHO cells stably expressing hERG; higher = less effect of the substance
Hit rate of the full screen: of about 310,000 compounds, about 2,200 (0.71%) showed an effect of 50% or more. The effect is printed as a negative number. Only a selection was taken, and strong results are over-represented in it overall.
Just so you know, the groups by hERG current change (%, negative = inhibition) at 1uM go like this: lower range: < -10%; middle range: ≥ -10% and < 10%; upper range: ≥ 10%

-- ask Band assignment needed for COc1ccc(CN2CCN(Cc3cccn3-c3ncccn3)CC2CCO)c(C)c1C (stereo not shown) please.
-- reply lower range

-- ask In plain terms, what class is `O=C(NCc1cccnc1)c1ccc(Cl)cc1[N+](=O)[O-]` ?
-- reply middle range

-- ask Class? Entry: CC1NC(=O)N(C)C2NC(=O)N(C)C(c3ccccc3)C12 (stereo not shown)
-- reply upper range

-- ask Hi there! Could you help me figure out the category for `CS(=O)(=O)N(CC(=O)N1CCc2ccccc2C1)c1ccc(Br)cc1` please?
-- reply upper range

-- ask For the record COc1ccc(CN2CCN(CC3CC3)CC2CCO)c(C)c1C (stereo not shown) , report the class its hERG current change (%, negative = inhibition) at 1uM corresponds to.
-- reply upper range

-- ask For the record `COc1ccc(Cl)cc1CSc1n[nH]c(C)n1` , report the class its hERG current change (%, negative = inhibition) at 1uM corresponds to.
-- reply upper range

-- ask Sort into band: Cc1ccc(N2C(=O)CC(NCc3ccc4c(c3)OCO4)C2=O)cc1Cl (stereo not shown)
-- reply lower range

-- ask Which category fits this record: `CCN(CC)CCOC(=O)c1ccc(NC(=O)/C=C/c2cccs2)cc1.Cl`
-- reply lower range

-- ask Category lookup for the compound `COC(=O)c1sc(S(=O)(=O)N2CCC(C(N)=O)CC2)c(C(=O)OC)c1C`
-- reply lower range

-- ask Bin? `CCCCOC(=O)c1ccc(NC(=O)/C=C/c2cccs2)cc1`
-- reply middle range

* * *

Kindly supply the reported hERG current change (%, negative = inhibition) at 1uM values for the records listed here.
Molecular target: human ether-à-go-go-related gene (hERG) potassium channel (human)
Assay: primary screen, population patch clamp on CHO cells stably expressing hERG; higher = less effect of the substance
About 2,200 (0.71%) of roughly 310,000 compounds showed an effect of 50% or more. Effects have a minus sign here. For the sample, strong results were picked, then their nearest neighbours and some compounds at random.
Give just the numeric value; % need not be written.

-- ask Provide the documented hERG current change (%, negative = inhibition) at 1uM with human ether-à-go-go-related gene (hERG) potassium channel (human) as the system for `Cc1cc(N2CCN(Cc3nc(-c4ccc(Cl)cc4)oc3C)CC2)cc(C)n1`
-- reply -57.8

-- ask Enter reported hERG current change (%, negative = inhibition) at 1uM observed with human ether-à-go-go-related gene (hERG) potassium channel (human) for `CCCCn1c(=O)c(C(=O)c2ccccc2)nc2ccccc21`
-- reply 5.56

-- ask # value lookup — system human ether-à-go-go-related gene (hERG) potassium channel (human), readout hERG current change (%, negative = inhibition) at 1uM, item Cc1oc(-c2ccc(Cl)cc2)nc1CN1CCCC(C(=O)N2CCN(C(=O)c3ccco3)CC2)C1 (stereo not drawn)
-- reply -75.1

-- ask API: value(readout= hERG current change (%, negative = inhibition) at 1uM, system= human ether-à-go-go-related gene (hERG) potassium channel (human), query= `CCCCCn1c(=O)c(C(=O)c2ccccc2)nc2ccccc21` )
-- reply -52.5

-- ask Under human ether-à-go-go-related gene (hERG) potassium channel (human): hERG current change (%, negative = inhibition) at 1uM value of `Cc1cc(N2CCN(Cc3nc(-c4ccc(F)cc4)oc3C)CC2)cc(C)n1` ?
-- reply -27.2

-- ask // map `CCOC(=O)C1CCN(C(=O)CCS(=O)(=O)c2ccc3c(c2)n(C)c(=O)c(=O)n3C)CC1` to recorded hERG current change (%, negative = inhibition) at 1uM (system: human ether-à-go-go-related gene (hERG) potassium channel (human))
-- reply 10.2

-- ask Quick check: hERG current change (%, negative = inhibition) at 1uM on human ether-à-go-go-related gene (hERG) potassium channel (human), item `O=C(c1ccco1)N1CCN(Cc2nnc(-c3cccc(Cl)c3)o2)CC1` ?
-- reply -13.8

-- ask Lab request: please report hERG current change (%, negative = inhibition) at 1uM under test system human ether-à-go-go-related gene (hERG) potassium channel (human) for `CCCn1c(=O)c(C(=O)c2ccccc2)nc2ccccc21`
-- reply -0.484

-- ask Notebook entry, human ether-à-go-go-related gene (hERG) potassium channel (human) assay: hERG current change (%, negative = inhibition) at 1uM of CC12CCC(=O)N1C(C(=O)Nc1cc(C(F)(F)F)ccc1N1CCOCC1)CS2 (stereo not drawn) = ?
-- reply 10.5

* * *

Biological target: human ether-à-go-go-related gene (hERG) potassium channel (human)
Assay: primary screen, population patch clamp on CHO cells stably expressing hERG; higher = less effect of the substance
Hit rate of the full screen: of about 310,000 compounds, about 2,200 (0.71%) showed an effect of 50% or more. The effect is printed as a negative number. The sample as a whole holds a higher share of strong results than the screen did.
For each of the compounds below, state its hERG current change (%, negative = inhibition) at 1uM.
Could you give me the number in %? Just the number is fine.

-- ask Query (compound): `CN1/C(=C\C=O)C(C)(C)c2ccccc21` ; field requested: hERG current change (%, negative = inhibition) at 1uM
-- reply 3.65

-- ask What does the record list as hERG current change (%, negative = inhibition) at 1uM for `CN1/C(=C\C=Nc2ccccc2)C(C)(C)c2ccccc21` ?
-- reply -65

-- ask Please give the measured hERG current change (%, negative = inhibition) at 1uM for this compound: `COc1ccc(CN2CCC(c3nc4ccc(Cl)cc4[nH]3)CC2)cc1`
-- reply -84

-- ask Looking for the measured hERG current change (%, negative = inhibition) at 1uM of `Clc1ccc2nc(C3CCN(Cc4ccccc4)CC3)[nH]c2c1` , can you help?
-- reply -73.7

-- ask Which value of hERG current change (%, negative = inhibition) at 1uM has been reported for `Cc1ccc(CNC(=O)N2CCN(c3ccc(C)cc3)CC2)cc1` in the records?
-- reply 14.1

-- ask May I ask what hERG current change (%, negative = inhibition) at 1uM has been recorded for `COc1ccc(CCN(C)C(=O)c2ccc(S(=O)(=O)Nc3ccccc3C)cc2)cc1OC` ?
-- reply 10.8

-- ask Fill in: hERG current change (%, negative = inhibition) at 1uM of CC1CCCN(C(=O)CN2CCC(c3nc4ccc(Cl)cc4[nH]3)CC2)C1 (stereo not shown) is ___
-- reply -35.9

-- ask Form field: reported hERG current change (%, negative = inhibition) at 1uM of `Cc1c(N=C/C=C2\N(C)c3ccccc3C2(C)C)c(=O)n(-c2ccccc2)n1C`
-- reply -15.5

-- ask Please look up its hERG current change (%, negative = inhibition) at 1uM: `CC(C)(C)c1ccc(S(=O)(=O)N2CCC(c3nc4ccc(Cl)cc4[nH]3)CC2)cc1`
-- reply 7.6

-- ask Look up hERG current change (%, negative = inhibition) at 1uM: `Clc1ccc(CN2CCC(c3nc4ccc(Cl)cc4[nH]3)CC2)cc1`
-- reply -78.7

* * *

Target: human ether-à-go-go-related gene (hERG) potassium channel (human, UniProt Q12809)
Sequence (Q12809 whole entry, looked up): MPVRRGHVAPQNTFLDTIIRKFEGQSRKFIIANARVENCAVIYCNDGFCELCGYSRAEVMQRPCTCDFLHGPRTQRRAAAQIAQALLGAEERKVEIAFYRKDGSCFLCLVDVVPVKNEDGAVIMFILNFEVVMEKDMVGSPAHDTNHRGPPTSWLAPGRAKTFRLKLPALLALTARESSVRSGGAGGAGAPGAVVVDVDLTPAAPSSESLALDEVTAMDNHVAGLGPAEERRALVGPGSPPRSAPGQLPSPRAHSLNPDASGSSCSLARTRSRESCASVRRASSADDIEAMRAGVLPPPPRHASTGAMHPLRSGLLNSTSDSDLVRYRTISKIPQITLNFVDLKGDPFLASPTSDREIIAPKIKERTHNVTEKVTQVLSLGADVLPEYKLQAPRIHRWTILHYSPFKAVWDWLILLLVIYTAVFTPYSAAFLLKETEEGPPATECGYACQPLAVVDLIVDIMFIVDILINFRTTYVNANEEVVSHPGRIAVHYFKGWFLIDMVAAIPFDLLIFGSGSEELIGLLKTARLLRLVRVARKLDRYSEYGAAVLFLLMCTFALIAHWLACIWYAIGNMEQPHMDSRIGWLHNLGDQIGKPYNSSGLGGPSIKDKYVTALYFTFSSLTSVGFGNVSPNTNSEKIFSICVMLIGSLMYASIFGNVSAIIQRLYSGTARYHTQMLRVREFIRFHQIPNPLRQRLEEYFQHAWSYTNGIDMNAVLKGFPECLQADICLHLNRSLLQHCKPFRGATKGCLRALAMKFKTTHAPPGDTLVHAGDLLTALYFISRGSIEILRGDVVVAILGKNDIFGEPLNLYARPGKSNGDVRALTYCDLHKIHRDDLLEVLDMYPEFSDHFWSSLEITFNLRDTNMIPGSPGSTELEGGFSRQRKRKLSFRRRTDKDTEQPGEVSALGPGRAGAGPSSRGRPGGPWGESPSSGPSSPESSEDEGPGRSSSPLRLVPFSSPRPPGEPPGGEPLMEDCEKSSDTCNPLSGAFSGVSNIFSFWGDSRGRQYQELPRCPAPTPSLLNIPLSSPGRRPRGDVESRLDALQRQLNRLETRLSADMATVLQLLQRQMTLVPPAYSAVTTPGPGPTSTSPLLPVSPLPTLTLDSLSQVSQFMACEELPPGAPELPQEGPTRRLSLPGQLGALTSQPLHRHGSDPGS
Test: primary screen, population patch clamp on CHO cells stably expressing hERG; higher = less effect of the substance
About 2,200 (0.71%) of roughly 310,000 compounds showed an effect of 50% or more. Effects have a minus sign here. The sample as a whole holds a higher share of strong results than the screen did.
Assignment: determine reported hERG current change (%, negative = inhibition) at 1uM for the given molecules.
Numbers only; they are read as %.

-- ask Item `COc1ccc(-c2cc(C3CCN(Cc4cccc(C(F)(F)F)c4)CC3)[nH]n2)cc1` with human ether-à-go-go-related gene (hERG) potassium channel (human, UniProt Q12809) - hERG current change (%, negative = inhibition) at 1uM?
-- reply -13

-- ask Form field: hERG current change (%, negative = inhibition) at 1uM recorded for `O=S(=O)(c1ccc(Cl)cc1)N1CCC(O)(CN2CCN(Cc3ccccc3)CC2)CC1` with human ether-à-go-go-related gene (hERG) potassium channel (human, UniProt Q12809) (enter value)
-- reply -75.6

-- ask Request body: readout hERG current change (%, negative = inhibition) at 1uM, system human ether-à-go-go-related gene (hERG) potassium channel (human, UniProt Q12809), query `COc1ccc(S(=O)(=O)N2CCN(C3CCN(Cc4ccccc4)CC3)CC2)cc1` . Return the value.
-- reply -15.6

-- ask Please state recorded hERG current change (%, negative = inhibition) at 1uM (tested on human ether-à-go-go-related gene (hERG) potassium channel (human, UniProt Q12809)) of `CS(=O)(=O)N1CCN(C2CCN(Cc3ccccc3)CC2)CC1`
-- reply 7.88

-- ask Request - read-out hERG current change (%, negative = inhibition) at 1uM | tested on human ether-à-go-go-related gene (hERG) potassium channel (human, UniProt Q12809) | molecule O=C(O)C(C(O)c1ccc([N+](=O)[O-])cc1)[n+]1ccccc1.[Br-] (stereo not shown)
-- reply 18.1

-- ask API: value(readout=hERG current change (%, negative = inhibition) at 1uM, system=human ether-à-go-go-related gene (hERG) potassium channel (human, UniProt Q12809)) for record `CN1CCN(CC2(O)CCN(S(=O)(=O)c3ccc(Cl)cc3)CC2)CC1`
-- reply -9.27

-- ask Could you share what hERG current change (%, negative = inhibition) at 1uM was measured for `CCOC(=O)CN1CCC(c2cc(-c3ccc(Cl)cc3)n[nH]2)CC1` , tested on human ether-à-go-go-related gene (hERG) potassium channel (human, UniProt Q12809)?
-- reply 22.3

-- ask Request - read-out hERG current change (%, negative = inhibition) at 1uM | tested on human ether-à-go-go-related gene (hERG) potassium channel (human, UniProt Q12809) | molecule `CC(C)(C)OC(=O)N1CCC(c2cc(-c3cccs3)n[nH]2)CC1`
-- reply 4.89

-- ask Query hERG current change (%, negative = inhibition) at 1uM on human ether-à-go-go-related gene (hERG) potassium channel (human, UniProt Q12809) for `Cc1ccc(CN2CCC(c3cc(-c4cccs4)n[nH]3)CC2)cc1`
-- reply -85.6

-- ask Record lookup: for human ether-à-go-go-related gene (hERG) potassium channel (human, UniProt Q12809), what hERG current change (%, negative = inhibition) at 1uM belongs to `O=C(Nn1cnnc1)c1cc([N+](=O)[O-])cc([N+](=O)[O-])c1` ?
-- reply 5.11
